- Test system: SN12C
- methodSummary: GI50, drug alone; higher = less potent
- condition: treatment: drug alone; 5 days
property: GI50, drug alone (µM)
Answer format: numeric, µM implied, no suffix.

Check out these entries, answers already filled in.
CC(C)n1nc(-c2ccc3oc(N)nc3c2)c2c(N)ncnc21 [INK 128] = 0.039
CN(C)C1CCN(C(=O)c2ccc(NC(=O)Nc3ccc(-c4nc(N5CCOCC5)nc(N5CCOCC5)n4)cc3)cc2)CC1 = 0.05

Turning now to a further compound:
Q: // fetch GI50, drug alone given entry Cc1ccc(C(=O)Nc2cccc(C(F)(F)F)c2)cc1Nc1nc(-c2cccnc2)nc2c1cnn2C [NVP-BHG712]
A: 4.56
